# Test system: MDA-MB-435
Use one of these outcomes when replying: y (active), n (inactive)

Solved entries:
>  <Compound>
C=CC(=O)Nc1cc(C)ccc1Nc1nc(Nc2cc(OC)ncc2C)ncc1C(F)(F)F

>  <Label class>
y

$$$$
>  <Compound>
NCCOCCOCCNc1nc(-c2ccccc2)nc(N2CCN(c3ccccn3)CC2)n1

>  <Label class>
n

$$$$
>  <Compound>
CNC(=O)c1ccccc1Nc1nc(Nc2cc(OC)c(OC)c(OC)c2)ncc1Br

>  <Label class>
y

$$$$

Which result was noted for this compound in the test: "COCc1cc(C(=O)Nc2cc([C@H]3CC[C@@H](OC(=O)NC(C)C)C3)[nH]n2)n(C)n1" n

// outcome(item) with item = "O=C(Nc1ccc(-n2ccc3c(NC(=O)c4ccccc4)ncnc32)cc1)Nc1ccc(Cl)c(Cl)c1" n

Hey, what did the test say about "O=c1cc(-c2cccc3c2Sc2ccccc2S3)oc(N2CCOCC2)c1" ? n

Give the logged outcome of this assay for the following compound: "CC(=O)C1=C(O)C=C2Oc3c(C(=O)/C=C/c4c(Cl)cccc4Cl)c(O)c(C)c(O)c3[C@]2(C)C1=O" n

Call for entry "Oc1ccc(-c2nc3ccccc3s2)cc1CN(Cc1ccccn1)Cc1ccccn1" : n

====

Recorded measurements of TGI, one per entry
# Tested on: HT29 colon
# Assay protocol: NCI tumour cell line growth inhibition, 48 h

Example entries and their recorded answers appear below.
>  <Compound>
CCOC(=O)C1=CCOc2cc(N(C)C)ccc21

>  <TGI>
> 100 µM

$$$$
>  <Compound>
COC(O)C(=O)c1ccc2c(c1)CC1(C2)Cc2cc3c(cc2C1=O)CCC3 (centres undefined)

>  <TGI>
42.3 µM

$$$$
>  <Compound>
CCOC(=O)C1(C(=O)OCC)OC(C)=NC1(C(=O)OC)C(=O)OC

>  <TGI>
> 100 µM

$$$$
>  <Compound>
CS(=O)(=O)CCc1cccc(C(=O)c2cnn(-c3ccc(F)cc3)c2N)c1

>  <TGI>
> 25 µM

$$$$
>  <Compound>
Cc1cc(Cc2cc(C)c(NC(=O)C(=O)C3CCC4=C(SC5C=CC=CC5N4)C3=O)c(C(C)C)c2)cc(C(C)C)c1NC(=O)C(=O)C1CCC2=C(SC3C=CC=CC3N2)C1=O (centres undefined)

>  <TGI>
> 100 µM

$$$$

Provide only the value of recorded TGI for CN(C)C(c1ccccc1)C1COC2Cc3ccccc3C1O2 (centres undefined) > 100 µM

Provide one value: measured TGI of "N=c1ccn(O)cc1/C=C1/C(=O)Nc2ccccc21" > 100 µM

Query TGI for CN1C(=O)C2(C=CC(O)CC2)c2ccccc21 (centres undefined) > 100 µM

Let me know recorded TGI for COC(=O)c1cc(C(=CCC[C@H]2CC[C@@]3(C)C(CCC4C3CC[C@@]3(C)C4CC[C@@H]3C(C)CCCC(C)C)C2)c2cc(Cl)c(O)c(C(=O)OC)c2)cc(Cl)c1O (some centres undefined) , thanks. > 10 µM

====

# System: EKVX NSCLC
# Assay protocol: NCI tumour cell line growth inhibition, 48 h
Quantity: TGI

Consider the worked cases shown below.
>  <Compound>
CC(=O)C1C(c2ccc(N(C)C)cc2)c2cc3c(cc2OC1(C)O)OCO3 (centres undefined)

>  <Measured result>
> 100 µM

$$$$
>  <Compound>
Cc1nc(-c2cn3c(n2)-c2ccc(-c4cnn(C(C)(C)C(N)=O)c4)cc2OCC3)n(C(C)C)n1

>  <Measured result>
> 10 µM

$$$$
>  <Compound>
CC1=C(O)C(=O)C2C(=O)C1C1Cc3ccccc3C21 (centres undefined)

>  <Measured result>
> 100 µM

$$$$

# return recorded TGI for entry "CCOC(=O)C1=NN(c2ccc([N+](=O)[O-])cc2)[C@@]2(C)C[C@]3(c4ccccc4)N(c4ccc([N+](=O)[O-])cc4)N=C(C(=O)OCC)N3c3ccccc3N12" > 100 µM

Dear colleague, please send me the reported TGI for COC(=O)C(C(=O)C(=O)Nc1ccc([N+](=O)[O-])cc1[N+](=O)[O-])c1nc2ccc(Cl)cc2[nH]c1=O (centres undefined) when you can. > 100 µM

Supply recorded TGI for N#Cc1c(N2CCC(O)C2)c2ccccc2n2c1nc1ccccc12 (centres undefined) here. > 100 µM

Given the compound COC(O)C(=O)c1ccc2c(c1)CC1(C2)Cc2cc3c(cc2C1=O)CCC3 (centres undefined) , write its reported TGI. 45.7 µM

Given the compound "C/C1=C/C(=O)O[C@@H]2C[C@@H](CC[C@H](C)/C=C\C=C\CC1)O[C@@](O)([C@@H]1CSC(=O)N1)C2" , write its reported TGI. > 5.52 µM

For the compound Nc1nc2c(ncn2C2C=CC(CO)C2)c(=O)[nH]1 (centres undefined) , give its reported TGI. > 100 µM

Read off the recorded TGI for "COC(=O)c1cc(O)c2cc3c(cc2c1-c1cc(OC)c(OC)c(OC)c1)OCO3" > 100 µM

Give me measured TGI, please, for this compound: "O=C(NCCCO)c1cc(Cl)ccc1O" 18.1 µM

Give the measured TGI for "Cn1cnc([N+](=O)[O-])c1Sc1nccn1-c1cccc2ccccc12" 92.4 µM

Indicate the recorded TGI value for this compound: "Cc1ccc(S(=O)(=O)Oc2nc3ccccc3nc2OS(=O)(=O)c2ccc(C)cc2)cc1" > 100 µM

Please list TGI recorded for the compound "O=C(Nc1ccc(-n2ccc3c(NC(=O)c4ccccc4)ncnc32)cc1)Nc1ccc(Cl)c(Cl)c1" 21 µM

The measurements presented in this section are drawn from PubChem BioAssay (NCI).
